Quick reference: HepG2 - CC50 of the listed items.
# System: HepG2 cells
# procedureText: Cytotoxicity assay (resazurin assay)
# Type: cell-based, human
# experimentalContext: 4000 cells/well, 24 h incubation with compound, fluorescence 560/590
Numbered stars: 1 amine (or outer) side, 2 acyl side, 3 side chain; on linkers, the order of the positions; unused ones are H or OH. Bridge positions count the residues as written; N and C are the ends. Square brackets hold non-standard residues; d marks the D form. Peptide text beside a SMILES is read from it. * marks the point of attachment. NH(2-ClPh) = Clc1ccccc1N*; Dab = NCC[C@H](N)C(=O)O; CO = O=C([*:1])[*:2]

{"compound": "CC(C)C[C@@H]1NC(=O)[C@@H](Cc2ccccc2)NC(=O)[C@H](CCN)NC(=O)[C@@H](NC(=O)[C@H](CCN)NC(=O)[C@@H](NC(=O)[C@H](CCN)NC(=O)Nc2ccccc2Cl)[C@@H](C)O)CCNC(=O)[C@H]([C@@H](C)O)NC(=O)[C@H](CCN)NC(=O)[C@H](CCN)NC1=O [Compound 13] ({NH(2-ClPh)-CO}-[Dab]T[Dab][Dab][Dab][dF]L[Dab][Dab]T; lactam 4-C)", "testSystem": "HepG2 cells", "valueReported": ">300 µM"}

IN: Which HepG2 - CC50 reading was recorded for the compound CNC(C)C1CCC(N)C(OC2C(N)CC(N)C(OC3OCC(C)(O)C(NC)C3O)C2O)O1 (centres unmarked) [Gentamicin, reference compound] ?
OUT: >300 µM

###

# Tested on: K. pneumoniae CI Koprana 100650661:1, PmxR
# experimentalContext: MIC K. pneumoniae CI Koprana 100650661:1, PmxR (µg/mL)
Bridge positions count the residues as written; N and C are the ends. Square brackets hold non-standard residues; d marks the D form. Peptide text beside a SMILES is read from it. * marks the point of attachment. Octanoyl = CCCCCCCC(=O)*; Dab = NCC[C@H](N)C(=O)O
quantityMeasured: MIC

{"compound": "CCCCCCCC(=O)N[C@@H](CCN)C(=O)N[C@H](C(=O)N[C@@H](CCN)C(=O)N[C@H]1CCNC(=O)[C@H]([C@@H](C)O)NC(=O)[C@H](CCN)NC(=O)[C@H](CCCNC(=N)N)NC(=O)[C@H](CC(C)C)NC(=O)[C@@H](Cc2ccccc2)NC(=O)[C@H](CCN)NC1=O)[C@@H](C)O", "quantityMeasured": "MIC", "valueReported": "> 32 µg/mL"}
{"compound": "CCCCCCCC(=O)N[C@@H](CCN)C(=O)N[C@H](C(=O)N[C@@H](CCN)C(=O)N[C@H]1CCNC(=O)[C@H]([C@@H](C)O)NC(=O)[C@H](CCN)NC(=O)[C@H](CCNC(=O)[C@@H](N)CCC(=O)O)NC(=O)[C@H](CC(C)C)NC(=O)[C@@H](Cc2ccccc2)NC(=O)[C@H](CCN)NC1=O)[C@@H](C)O [Compound 23] (Octanoyl-[Dab]T[Dab][Dab][Dab][dF]L[Dab](Glu)[Dab]T; lactam 4-C)", "quantityMeasured": "MIC", "valueReported": "> 32 µg/mL"}
{"compound": "CCCCCCCC(=O)N[C@@H](CCN)C(=O)N[C@H](C(=O)N[C@H](CO)C(=O)N[C@H]1CCNC(=O)[C@H]([C@@H](C)O)NC(=O)[C@H](CCN)NC(=O)[C@H](CCN)NC(=O)[C@H](CC(C)C)NC(=O)[C@@H](Cc2ccccc2)NC(=O)[C@H](CCN)NC1=O)[C@@H](C)O [Compound 37] (Octanoyl-[Dab]T[dS][Dab][Dab][dF]L[Dab][Dab]T; lactam 4-C)", "quantityMeasured": "MIC", "valueReported": "> 32 µg/mL"}

IN: Which MIC reading was recorded for the compound CCCCCCCC(=O)N[C@@H](CCN)C(=O)N[C@H](C(=O)N[C@@H](CCN)C(=O)N[C@H]1CCNC(=O)[C@H]([C@@H](C)O)NC(=O)[C@H](CCNC(=O)[C@@H](N)CCCNC(=N)N)NC(=O)[C@H](CCN)NC(=O)[C@H](CC(C)C)NC(=O)[C@@H](Cc2ccccc2)NC(=O)[C@H](CCN)NC1=O)[C@@H](C)O [Compound 18] (Octanoyl-[Dab]T[Dab][Dab][Dab][dF]L[Dab][Dab](Arg)T; lactam 4-C) ?
OUT: > 32 µg/mL

IN: Same question for CCCCCCCC(=O)N[C@H](C(=O)NCC(=O)N[C@H]1CCNC(=O)[C@H]([C@@H](C)O)NC(=O)[C@H](CCN)NC(=O)[C@H](CCN)NC(=O)[C@H](CC(C)C)NC(=O)[C@@H](Cc2ccccc2)NC(=O)[C@H](CCN)NC1=O)[C@@H](C)O [Compound 39] (Octanoyl-TG[Dab][Dab][dF]L[Dab][Dab]T; lactam 3-C) please.
OUT: > 32 µg/mL

IN: Same question for CCC(C)CCCCC(=O)N[C@@H](CCN)C(=O)N[C@H](C(=O)N[C@@H](CCN)C(=O)N[C@H]1CCNC(=O)[C@H]([C@@H](C)O)NC(=O)[C@H](CCN)NC(=O)[C@H](CCN)NC(=O)[C@H](CC(C)C)NC(=O)[C@@H](Cc2ccccc2)NC(=O)[C@H](CCN)NC1=O)[C@@H](C)O (stereo partly drawn) please.
OUT: 64 µg/mL
